# measured.target: Adenosine receptor A2a (Homo sapiens)
# procedure.text: Displacement of [3H][…] from human adenosine A2A receptor expressed in human HeLa cells at 0.1 uM by liquid scintillation counting
# Type: cell-based
quantity: inhibition (%)

smiles.text	value.units	inhibition
CC(=O)Nc1cc(-c2ccc(C(C)=O)cc2)nc(-c2ccc(C(C)=O)cc2)n1	%	13
CCCC(=O)Nc1nc(-c2ccc(OC)cc2OC)cc(-c2ccc(OC)cc2OC)n1	%	16
CCC(=O)Nc1nc(-c2ccc(C(F)(F)F)cc2)cc(-c2ccc(C(F)(F)F)cc2)n1	%	12
CC(=O)Nc1nc(-c2ccccc2F)cc(-c2ccccc2F)n1	%	12

---

# measured.target: UniProtKB P30542
# Sequence (whole entry): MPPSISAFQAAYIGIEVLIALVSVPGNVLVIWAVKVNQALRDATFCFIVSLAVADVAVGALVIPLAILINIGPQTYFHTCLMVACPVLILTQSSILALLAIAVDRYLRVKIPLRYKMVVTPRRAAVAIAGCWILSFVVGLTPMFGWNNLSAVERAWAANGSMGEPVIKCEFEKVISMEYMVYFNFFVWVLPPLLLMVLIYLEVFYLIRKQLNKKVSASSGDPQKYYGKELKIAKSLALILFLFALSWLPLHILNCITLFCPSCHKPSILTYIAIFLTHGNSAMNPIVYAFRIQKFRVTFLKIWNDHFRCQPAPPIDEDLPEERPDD
# procedure.text: Displacement of [3H]DPCPX from human adenosine A1 receptor expressed in CHO cells at 0.1 uM by liquid scintillation counting
# Type: cell-based
quantity: inhibition (%)

smiles.text	value.units	inhibition
CSc1ccc(-c2cc(-c3ccc(SC)cc3)nc(NC(C)=O)n2)cc1	%	1
CCC(=O)Nc1nc(-c2ccc(OC)cc2OC)cc(-c2ccc(OC)cc2OC)n1	%	3
CCC(=O)Nc1cc(/C=C/c2ccccc2)nc(/C=C/c2ccccc2)n1	%	17
CCCC(=O)Nc1cc(-c2ccc(OC)cc2)nc(-c2ccc(OC)cc2)n1	%	8
CCCC(=O)Nc1cc(-c2ccc(Cl)cc2)nc(-c2ccc(Cl)cc2)n1	%	16

1: COc1ccc(-c2cc(-c3ccc(OC)cc3)nc(NC(C)=O)n2)cc1
2: CCCC(=O)Nc1nc(-c2ccc(F)cc2)cc(-c2ccc(F)cc2)n1
Of 1 and 2 , whose reported inhibition is the larger number? Please respond with the label that marks your chosen entry.
2
(2: 18%, 1: 1%)

---

# measured.target: Adenosine receptor A2a (Homo sapiens, UniProt P29274)
# Sequence (P29274 whole entry): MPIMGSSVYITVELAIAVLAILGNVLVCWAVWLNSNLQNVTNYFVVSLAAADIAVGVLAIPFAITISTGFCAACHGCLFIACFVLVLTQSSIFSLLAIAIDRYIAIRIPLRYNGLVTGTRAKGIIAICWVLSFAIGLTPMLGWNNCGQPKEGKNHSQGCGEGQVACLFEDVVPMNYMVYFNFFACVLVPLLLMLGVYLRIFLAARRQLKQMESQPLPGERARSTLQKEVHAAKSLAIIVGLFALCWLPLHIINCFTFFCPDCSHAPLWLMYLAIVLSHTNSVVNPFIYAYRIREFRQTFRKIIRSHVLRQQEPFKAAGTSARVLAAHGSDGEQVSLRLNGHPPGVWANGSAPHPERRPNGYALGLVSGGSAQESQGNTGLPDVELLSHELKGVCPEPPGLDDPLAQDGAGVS
# procedure.text: Displacement of [3H][…] from human adenosine A2A receptor expressed in human HeLa cells at 0.1 uM by liquid scintillation counting
# Format: cell-based
quantity: inhibition (%)

smiles.text	quantity	numeric.readout
CCC(=O)Nc1nc(-c2ccc(F)cc2)cc(-c2ccc(F)cc2)n1	inhibition	3
CCC(=O)Nc1nc(-c2ccccc2OC)cc(-c2ccccc2OC)n1	inhibition	13
CC(=O)Nc1nc(-c2ccc(C(C)=O)cc2)cc(-c2ccc(C(C)=O)cc2)n1	inhibition	8
CSc1ccc(-c2cc(NC(C)=O)nc(-c3ccc(SC)cc3)n2)cc1	inhibition	1
CCC(=O)Nc1nc(-c2ccco2)cc(-c2ccco2)n1	inhibition	15

A: CCCC(=O)Nc1nc(-c2ccc(Cl)cc2)cc(-c2ccc(Cl)cc2)n1
B: CC(=O)Nc1nc(-c2ccc(C)cc2)cc(-c2ccc(C)cc2)n1
C: CCC(=O)Nc1cc(-c2ccc(Cl)cc2)nc(-c2ccc(Cl)cc2)n1
Provide the items ranked by increasing inhibition. Provide the labels, sequenced as the question asks.
A, B, C
(A: 3%, B: 6%, C: 20%)

---

# measured.target: Adenosine receptor A3 (Homo sapiens)
# Sequence (P0DMS8 whole entry): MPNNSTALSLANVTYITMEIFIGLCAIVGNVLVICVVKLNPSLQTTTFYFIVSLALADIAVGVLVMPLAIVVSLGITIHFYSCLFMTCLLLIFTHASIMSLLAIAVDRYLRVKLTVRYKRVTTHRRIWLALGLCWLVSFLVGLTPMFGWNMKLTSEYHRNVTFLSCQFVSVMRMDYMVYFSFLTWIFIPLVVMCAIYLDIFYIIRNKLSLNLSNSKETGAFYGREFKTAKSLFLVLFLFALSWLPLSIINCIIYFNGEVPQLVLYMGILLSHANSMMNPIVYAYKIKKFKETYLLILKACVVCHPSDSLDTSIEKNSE
# procedure.text: Displacement of [3H]NECA from human adenosine A3 receptor expressed in human HeLa cells by liquid scintillation counting
# Assay type: cell-based
# condition.parameters: read-out: Ki
quantity: Ki (nM)

smiles.text	measured.target	quantity	numeric.readout
CC(=O)Nc1nc(-c2ccc(C)cc2)cc(-c2ccc(C)cc2)n1	Adenosine receptor A3 (Homo sapiens)	Ki	47.3

1: CCC(=O)Nc1cc(-c2ccoc2)nc(-c2ccoc2)n1
2: CCC(=O)Nc1cc(-c2ccc(SC)cc2)nc(-c2ccc(SC)cc2)n1
3: CCC(=O)Nc1nc(-c2ccc(SC)cc2)cc(-c2ccc(SC)cc2)n1
4: CCC(=O)Nc1nc(/C=C/c2ccccc2)cc(/C=C/c2ccccc2)n1
Sort entries by Ki from minimum to maximum value. Reply with the labels, ordered as the question asks.
1, 2, 4, 3
(1: 12.6 nM, 2: 43.6 nM, 4: 142 nM, 3: 4430 nM)

P: CCCC(=O)Nc1cc(-c2ccc(F)cc2)nc(-c2ccc(F)cc2)n1
Q: COc1ccc(-c2cc(NC(=O)C(C)C)nc(-c3ccc(OC)cc3)n2)cc1
Higher Ki: P or Q ? Your answer should be the label of the entry you select.
P

I: CC(=O)Nc1cc(-c2ccc(C)cc2)nc(-c2ccc(C)cc2)n1
II: CCCC(=O)Nc1nc(-c2ccc(C)cc2)cc(-c2ccc(C)cc2)n1
III: COc1ccccc1-c1cc(NC(C)=O)nc(-c2ccccc2OC)n1
Ascending sort, Ki. Answer format: list of labels, ordered as asked.
I, III, II
(I: 4.4 nM, III: 24.1 nM, II: 131 nM)

---

# measured.target: Adenosine receptor A2a (Homo sapiens, UniProt P29274)
# procedure.text: Displacement of [3H][…] from human adenosine A2A receptor expressed in human HeLa cells at 0.1 uM by liquid scintillation counting
# Type: cell-based
quantity: inhibition (%)

smiles.text	numeric.readout
CC(=O)Nc1cc(-c2ccc(C)cc2)nc(-c2ccc(C)cc2)n1	8

1: COc1ccc(-c2cc(NC(=O)C3CCCCC3)nc(-c3ccc(OC)cc3)n2)cc1
2: COc1ccccc1-c1cc(NC(C)=O)nc(-c2ccccc2OC)n1
Input pair: 1 , 2 . Output: entry with lower inhibition. Let me know the label of the one you choose.
1
(1: 1%, 2: 14%)

P: COc1ccc(-c2cc(-c3ccc(OC)cc3)nc(NC(C)=O)n2)cc1
Q: CCCC(=O)Nc1nc(-c2ccccc2)cc(-c2ccccc2)n1
Choose between P and Q : whose measured inhibition value is numerically larger? Identify your selection by its label.
P

---

# measured.target: Adenosine receptor A3 (Homo sapiens)
# procedure.text: Displacement of [3H]NECA from human adenosine A3 receptor expressed in human HeLa cells by liquid scintillation counting
# Type: cell-based
# condition.parameters: read-out: Ki
quantity: Ki (nM)

// solved cases for Ki follow
smiles.text	numeric.readout
CCCC(=O)Nc1cc(-c2cccs2)nc(-c2cccs2)n1	23
CCCC(=O)Nc1cc(-c2ccccc2OC)nc(-c2ccccc2OC)n1	110
CC(=O)Nc1nc(-c2ccc3c(c2)OCO3)cc(-c2ccc3c(c2)OCO3)n1	101
CCC(=O)Nc1cc(-c2ccc(C)cc2)nc(-c2ccc(C)cc2)n1	18.3
CCC(=O)Nc1cc(/C=C/c2ccccc2)nc(/C=C/c2ccccc2)n1	46.9

a: COc1ccc(-c2cc(NC(=O)C3CCCCC3)nc(-c3ccc(OC)cc3OC)n2)c(OC)c1
b: CC(=O)Nc1cc(-c2ccco2)nc(-c2ccco2)n1
c: CCCC(=O)Nc1cc(-c2ccc(Cl)cc2)nc(-c2ccc(Cl)cc2)n1
d: CCCC(=O)Nc1cc(-c2ccc(OC)cc2)nc(-c2ccc(OC)cc2)n1
e: CCC(=O)Nc1cc(-c2ccccc2OC)nc(-c2ccccc2OC)n1
// ascending sort on recorded Ki Reply with the labels, ordered as the question asks.
b, d, e, a, c

P: CCC(=O)Nc1cc(-c2ccc(C(C)=O)cc2)nc(-c2ccc(C(C)=O)cc2)n1
Q: CCCC(=O)Nc1cc(-c2ccc(C(C)=O)cc2)nc(-c2ccc(C(C)=O)cc2)n1
R: CC(=O)Nc1cc(-c2ccc(Cl)cc2)nc(-c2ccc(Cl)cc2)n1
# rank by Ki, ascending (min first) Labels, requested order.
P, R, Q

---

# measured.target: Adenosine receptor A1 (Homo sapiens) (UniProt P30542)
# procedure.text: Displacement of [3H]DPCPX from human adenosine A1 receptor expressed in CHO cells at 0.1 uM by liquid scintillation counting
# Type: cell-based
quantity: inhibition (%)

Worked set:
smiles.text	numeric.readout
CCC(=O)Nc1nc(-c2ccc(C)cc2)cc(-c2ccc(C)cc2)n1	1
COc1ccc(-c2cc(NC(C)=O)nc(-c3ccc(OC)cc3)n2)cc1	1

a: CCC(=O)Nc1nc(-c2ccc(Cl)cc2)cc(-c2ccc(Cl)cc2)n1
b: CCC(CC)C(=O)Nc1cc(-c2ccc(OC)cc2)nc(-c2ccc(OC)cc2)n1
c: CCCC(=O)Nc1nc(-c2ccc(OC)cc2OC)cc(-c2ccc(OC)cc2OC)n1
Arrange by inhibition, high to low. Answer by listing the labels in the order asked for.
c, b, a
